# assayed system: GABA A α5 (α5β3γ2) (Homo sapiens, UniProt P18507+P31644)
# Construct: expressed in transfected cells; host or cells: HEK293, transiently transfected; membrane preparation
# test method notes: [3H]flumazenil competition binding, human GABA A α5 receptor
# applied conditions: human receptor α5β3γ2 transiently transfected in HEK293 cells; competition for [3H]flumazenil 0.5 nM; 1 hour at 4° C.; means of two determinations; read-out: hKi GABA A α5
# Procedure: Membrane Preparation and Binding Assay The affinity of compounds at GABA A receptor subtypes was measured by competition for [3H]flumazenil (85 Ci/mmol; Roche) binding to HEK293 cells expressing rat (stably transfected) or human (transiently transfected) receptors of compositional α1β3γ2, α2β3γ2, α3β3γ2 and α5β3γ2. […]
endpoint: Ki (nM)
Quick note: give the figure in nM, leave out the unit.

- molecule: "CCCCc1noc(C)c1/C=C/c1nc(C)c(C(=O)N2CCOCC2)s1 [Example 120]"
  assayed system: "GABA A α5 (α5β3γ2) (Homo sapiens, UniProt P18507+P31644)"
  result units: "nM"
  Ki: 57.8
- molecule: "Cc1onc(-c2ccccc2)c1/C=C/c1ncc(C(=O)NC(C)C)s1 [Example 65]"
  assayed system: "GABA A α5 (α5β3γ2) (Homo sapiens, UniProt P18507+P31644)"
  result units: "nM"
  Ki: 1.3
- molecule: "CCCCc1noc(C)c1/C=C/c1nc(C)c(C(=O)NC2CCS(=O)(=O)C2)s1 (centres unmarked) [Example 118]"
  assayed system: "GABA A α5 (α5β3γ2) (Homo sapiens, UniProt P18507+P31644)"
  result units: "nM"
  Ki: 2.5
- molecule: "CCCCc1noc(C)c1/C=C/c1nc(C)c(C(=O)NC(C)CO)s1 (racemic) [Example 97]"
  assayed system: "GABA A α5 (α5β3γ2) (Homo sapiens, UniProt P18507+P31644)"
  result units: "nM"
  Ki: 4.7
- molecule: "CCCCc1noc(C)c1/C=C/c1nc(C)c(C(=O)O)s1 [Example 99]"
  assayed system: "GABA A α5 (α5β3γ2) (Homo sapiens, UniProt P18507+P31644)"
  result units: "nM"
  Ki: 27.6

Which Ki is reported for this molecule? CCCCc1noc(C)c1/C=C/c1nc(C)c(C(=O)NN2CCOCC2)s1 [Example 103] 1.8

Which Ki is reported for this molecule? Cc1onc(-c2ccc(F)cn2)c1CCc1ncc(C(=O)NCC2CC2)s1 [Example 43] 18.6

Which Ki is reported for this molecule? CCCCc1noc(C)c1/C=C\c1nc(C)c(C(=O)NCCO)s1 [Example 101] 28.8
